Values were extracted from patent EP2649091B1.

# studyTarget: HLA-A0201 (Homo sapiens, UniProt P04439, D140Y/D185E/D98H/E176V/E277Q/G131W/G231S/I119V/I121R/I166T/I218V/L300P/L318F/N151K/N90K/P208A/P217A/Q86G/Q94H/R138H/R169H/T345S)
# Format: binding
measurementLabel: % inhibition at T=4H and T=24H FP 24h (%)
Provide the reading as a plain figure in %.

Request: Which % inhibition at T=4H and T=24H FP 24h reading was recorded for the substance `[PHG][NVA]YDFFVWL` ?
Response: 76

---

Parameter: Geometric mean IFN-γ in arbitrary fluorescence units 0H. Scope: all listed entries.
# Test system: HLA-A2::Mart-1(26-35) reactive T cells stimulated by T2 cells
# test: T cell activation time course assay, IFNγ production (FACS), Mart-1 epitope
# Assay type: cell-based
# particulars: peptide 50 pM, time point 0H (basal)

A selection of reference data follows.
>>> reportedmeasurement("[CSME][2-AOC]AGIGILTV")
"111 arbitrary fluorescence units"
>>> reportedmeasurement("[am-phg]LAGIGILT[PRG]")
"105 arbitrary fluorescence units"
>>> reportedmeasurement("[am-phg][NVA]AGIGILT[ALG]")
"109 arbitrary fluorescence units"
>>> reportedmeasurement("[am-phg][2-AOC]AGIGILT[PRG]")
"109 arbitrary fluorescence units"

Request: I have this substance here, `[am-phg][NVA]AGIGILT[PRG]` , and I need its recorded Geometric mean IFN-γ in arbitrary fluorescence units 0H.
Response: 110 arbitrary fluorescence units

---

# Test system: HLA-A2::Mart-1(26-35) reactive T cells stimulated by T2 cells
# test: T cell activation time course assay, IFNγ production (FACS), Mart-1 epitope
# Type: cell-based
# particulars: peptide 50 pM, time point 24H, free peptide washed away
measurementLabel: % CD8+ T cells producing IFN-γ 24H (%)
Give the value, in units of %, as a plain number.

Record excerpt, results attached:
>>> reportedmeasurement("[am-phg]LAGIGILT[PRG]")
28
>>> reportedmeasurement("[am-phg][NVA]AGIGILT[ALG]")
29
>>> reportedmeasurement("[am-phg][NVA]AGIGILT[PRG]")
28
>>> reportedmeasurement("[CSME][2-AOC]AGIGILTV")
27

// switching to the query substance
Request: Recorded % CD8+ T cells producing IFN-γ 24H for `[am-phg][2-AOC]AGIGILT[PRG]` with HLA-A2::Mart-1(26-35) reactive T cells stimulated by T2 cells, please?
Response: 16

---

Listed below: Geometric mean IFN-γ in arbitrary fluorescence units 48H values for each entry.
# System: HLA-A2::Mart-1(26-35) reactive T cells stimulated by T2 cells
# test: T cell activation time course assay, IFNγ production (FACS), Mart-1 epitope
# Format: cell-based
# particulars: peptide 50 pM, time point 48H, free peptide washed away

Some substances with known Geometric mean IFN-γ in arbitrary fluorescence units 48H results, for comparison:
>>> reportedmeasurement("[am-phg]LAGIGILT[PRG]")
"215 arbitrary fluorescence units"
>>> reportedmeasurement("[am-phg][NVA]AGIGILT[ALG]")
"280 arbitrary fluorescence units"
>>> reportedmeasurement("[CSME][2-AOC]AGIGILTV")
"288 arbitrary fluorescence units"
>>> reportedmeasurement("[am-phg][2-AOC]AGIGILT[PRG]")
"86 arbitrary fluorescence units"

Next substance, please.
Request: What value of Geometric mean IFN-γ in arbitrary fluorescence units 48H has been recorded for this entry: `[am-phg][NVA]AGIGILT[PRG]`
Response: 222 arbitrary fluorescence units
